B1: PPFIA4 (parent)
chain: PGVHRRYSALREESAKDWETSPLP

Variants of: B1
Test Protocol: protein stability index of a GFP-peptide fusion (GPS, HEK-293T) (PSI 1-6); higher = more stable;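 note: lentivirally expressed fusions sorted by FACS into six bins by GFP to DsRed ratio, PSI derived from sequencing read proportions per bin multiplied by bin number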
Stated Conditions: c terminus: a fixed tail appended
Measured Parameter: protein stability index

[[record]]
mutations = "K16S"
numeric_result = 4.13

[[record]]
mutations = "H4M"
numeric_result = 4.49

[[record]]
mutations = "L23D"
numeric_result = 4.55

[[record]]
mutations = "D17A"
numeric_result = 3.29

[[record]]
mutations = "W18Q"
numeric_result = 4.77

[[record]]
mutations = "R6A"
numeric_result = 4.49

[[record]]
mutations = "S14T"
numeric_result = 3.56

[[record]]
mutations = "A15Q"
numeric_result = 3.63

[[record]]
mutations = "R11M"
numeric_result = 4.45

[[record]]
mutations = "A15W"
numeric_result = 3.86

[[record]]
mutations = "Y7C"
numeric_result = 3.87


Measured values drawn from the supplement of paper PMC10567573 for this set.
